// provenance: patent US9556165B2

test system: Bacteria; assay: MIC determination in combination with β-lactamase inhibitors (constant 4 μg/mL); format: cell-based; details: strain 19; E. coli J62-TEM-3 + 4 μg/mL clavulanic acid
# reported MIC strain 19 (E. coli J62-TEM-3 + 4 μg/mL clavulanic acid); entries follow
Return type: number; implicit unit µg/mL.

Answered examples (2):
(Q) Give MIC strain 19 (E. coli J62-TEM-3 + 4 μg/mL clavulanic acid) for the following molecule: `CN(C)CCNC(=N)c1ccc(OCCO/N=C(\C(=O)N[C@@H]2C(=O)N(OS(=O)(=O)O)C2(C)C)c2csc(N)n2)cc1`
(A) 0.125

(Q) Give MIC strain 19 (E. coli J62-TEM-3 + 4 μg/mL clavulanic acid) for the following molecule: `CN(C)C(=O)[C@@H]1C[C@H](NC(=N)c2ccc(OCCO/N=C(\C(=O)N[C@@H]3C(=O)N(OS(=O)(=O)O)C3(C)C)c3csc(N)n3)cc2)CN1`
(A) 1

---
(Q) Give MIC strain 19 (E. coli J62-TEM-3 + 4 μg/mL clavulanic acid) for the following molecule: `C[C@H]1[C@H](NC(=O)/C(=N\OCCOc2nnc(C(=N)N)s2)c2csc(N)n2)C(=O)N1S(=O)(=O)O`
(A) 0.5

(Q) Give MIC strain 19 (E. coli J62-TEM-3 + 4 μg/mL clavulanic acid) for the following molecule: `C[C@H]1[C@H](NC(=O)/C(=N\OCCOc2ccc(C(=N)NN)cc2)c2csc(N)n2)C(=O)N1S(=O)(=O)O`
(A) 1

(Q) Give MIC strain 19 (E. coli J62-TEM-3 + 4 μg/mL clavulanic acid) for the following molecule: CC1(C)[C@H](NC(=O)/C(=N\OCC(Oc2ccc(C(=N)N)cc2)C(=O)O)c2csc(N)n2)C(=O)N1OS(=O)(=O)O (single isomer, unassigned) [Example 87B]
(A) 0.5

(Q) Give MIC strain 19 (E. coli J62-TEM-3 + 4 μg/mL clavulanic acid) for the following molecule: `C[C@H]1[C@H](NC(=O)/C(=N\OCCOc2ccc(C(=N)N)cc2)c2nsc(N)n2)C(=O)N1S(=O)(=O)O`
(A) 2

----------
# reported MIC; entries follow
system: strain 19; assay: MIC determination, broth microdilution (CLSI); assay type: cell-based

(Q) Give MIC for the following molecule: Cc1cc(OCCO/N=C(\C(=O)N[C@@H]2C(=O)N(S(=O)(=O)O)[C@H]2C)c2csc(N)n2)ccc1C(=N)N [Example 14]
(A) 0.5 µg/mL

(Q) Give MIC for the following molecule: CC1(C)[C@H](NC(=O)/C(=N\OCCOc2ccc(C3=NCCN3)cc2)c2csc(N)n2)C(=O)N1OS(=O)(=O)O [Example 25]
(A) 0.125 µg/mL

(Q) Give MIC for the following molecule: CC1(C)[C@H](NC(=O)/C(=N\OCCOc2ccc(C(=N)NCCNC=N)cc2)c2csc(N)n2)C(=O)N1OS(=O)(=O)O [Example 38]
(A) 0.125 µg/mL

(Q) Give MIC for the following molecule: C[C@H]1[C@H](NC(=O)/C(=N\OCCOc2ccc(C(=N)N)cc2)c2csc(N)n2)C(=O)N1OCS(=O)(=O)O [Example 12]
(A) 0.5 µg/mL

(Q) Give MIC for the following molecule: C[C@H]1[C@H](NC(=O)/C(=N\OCCNc2ccc(C(=N)N)cc2)c2csc(N)n2)C(=O)N1S(=O)(=O)O [Example 8]
(A) 2 µg/mL

(Q) Give MIC for the following molecule: C[C@H]1[C@H](NC(=O)/C(=N\OCCSc2ccc(C(=N)N)cc2)c2csc(N)n2)C(=O)N1S(=O)(=O)O [Example 6]
(A) 0.25 µg/mL

---
(Q) Give MIC for the following molecule: CC1(C)[C@H](NC(=O)/C(=N\OCCOc2cnc(C(=N)N)c(O)c2)c2csc(N)n2)C(=O)N1OS(=O)(=O)O [Example 33]
(A) 0.25 µg/mL
